# Tested on: 317291-083-R-J1-PDC complex spheroids, viability;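 note: spheroids exposed to compounds for one week before readout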
# Experiment Notes: Anticancer human tumor 317291-083-R-J1-PDC patient-derived soft tissue sarcoma cell line growth inhibition [GQUAD]; active = viability on the fitted dose curve at most 10% of control; inactive = the rest
# Measurement Conditions: second compound 1 µM; first compound 1 µM
In this exercise, the only acceptable responses are active, inactive

q: Dear all, I need the recorded test outcome for O=C(NO)c1cnc(N2CCN(S(=O)(=O)c3ccc4ccccc4c3)CC2)nc1 + Cc1[nH]c2ccc(F)cc2c1-c1nc2c3cccnc3c3ncccc3c2[nH]1 , thank you.
a: active

q: What is the recorded call for this molecule in the test? Nc1ccn(C2OC(CO)C(O)C2(F)F)c(=O)n1 (stereo not drawn) + Cc1[nH]c2ccc(F)cc2c1-c1nc2c3cccnc3c3ncccc3c2[nH]1
a: active

q: Assay result, entry COc1cc(C2c3cc4c(cc3C(OC3OC5COC(C)OC5C(O)C3O)C3COC(=O)C23)OCO4)cc(OC)c1O (stereo not drawn) + Cc1cnc(CNC(=O)c2c(=O)c3ccc(N4CCCN(C)CC4)nc3n3c2sc2ccccc23)cn1 — outcome?
a: inactive

Source of measurements: PubChem BioAssay AID2060497
